- EXPERIMENT_NOTES: Acute toxicity in ICR mouse assessed as survival rate at 150 mg/kg, ip measured after 14 days relative to control
- Format: organism-based
- CONDITIONS_USED: in vivo, time 14 day
PROPERTY: survival at 336 h (%)
The response must be a number in % with no trailing unit.

Request the reported survival at 336 h associated with `COc1cc(-n2cnc3ccc(-c4ccc(C)c(N)c4)nc32)cc(OC)c1OC`
50

###

Form field: IC50 (one value per entry).
- System: MCF7
- EXPERIMENT_NOTES: Antiproliferative activity against human MCF7 cells assessed as inhibition of cell growth measured after 48 hrs by MTT assay
- Assay type: functional, cell-based
- CONDITIONS_USED: MCF7, 48 h
State the answer as a number, implicitly in nM.

1. COc1cc(-n2cnc3c(OC)cc(-c4ccc(C)c(CO)c4)cc32)cc(OC)c1OC : 67

Pending compound:
What does the data say about its IC50? Entry: `COc1ccc(-c2ccc3ncn(-c4cc(OC)c(OC)c(OC)c4)c3n2)cc1O`
3

###

- EXPERIMENT_NOTES: AUC (0 to infinity) in mouse at 15 mg/kg, po measured upto 24 hrs by LC-MS/MS analysis
- Assay type: ADME, organism-based
- CONDITIONS_USED: in vivo
PROPERTY: AUC(0-inf) (ng·h/mL)
Record the value in ng·h/mL, omitting the unit from your answer.

Recorded AUC(0-inf) for `COc1cc(-n2cnc3ccc(-c4ccc(C)c(N)c4)nc32)cc(OC)c1OC` , please?
1340

###

- Test system: A549/TR
- EXPERIMENT_NOTES: Antiproliferative activity against paclitaxel resistant human A549/Taxol cells assessed as inhibition of cell growth measured after 48 hrs by MTT assay
- Assay type: functional, cell-based
PROPERTY: pIC50
Note on pIC50: it is the negative log10 of concentration, concentration in mol/L.

Requested read-out: pIC50. Entry: `COc1cc(-n2cnc3ccc(-c4ccc(C)c(N)c4)nc32)cc(OC)c1OC`
8.80

###

- Tested on: U-87 MG
- EXPERIMENT_NOTES: Antiproliferative activity against human U-87 MG assessed as inhibition of cell growth measured after 48 hrs by MTT assay
- Format: functional, cell-based, U-87MG ATCC
PROPERTY: IC50 (nM)
Reply with just the number (in nM).

1) COc1cc(-n2cnc3ccc(-c4ccc(C)c(N)c4)nc32)cc(OC)c1OC : 15
2) COc1ccc(-c2cc3c([nH]c(=O)n3-c3cc(OC)c(OC)c(OC)c3)c(C(N)=O)n2)cc1O : 558

// next item, IC50 requested
Dear colleague, I am looking for the recorded IC50 of the following molecule: `COc1cc2c(c(OC)c1OC)-c1ccc(OC)c(=O)cc1[C@@H](NC(C)=O)CC2`
36

###

- EXPERIMENT_NOTES: Antiproliferative activity against cisplatin resistant human A2780/CDDP cells assessed as inhibition of cell growth measured after 48 hrs by MTT assay
- Type: functional, cell-based
PROPERTY: pIC50
Give only the number. pIC50 is defined as minus log10 of concentration in molar units.

I'd like to know its pIC50. The molecule in question is `COc1cc(-n2cnc3ccc(-c4ccc(C)c(N)c4)nc32)cc(OC)c1OC`
8.38

###

- System: HT-29
- EXPERIMENT_NOTES: Antiproliferative activity against human HT-29 cells assessed as inhibition of cell growth measured after 48 hrs by MTT assay
- Assay type: functional, cell-based
- CONDITIONS_USED: HT-29, 48 h
# reported IC50; entries follow
A number alone suffices; assume nM.

Would you kindly share the measured IC50 for `COc1cc2c(c(OC)c1OC)-c1ccc(OC)c(=O)cc1[C@@H](NC(C)=O)CC2` ?
59

Name the recorded IC50 for `COc1cc(-n2cnc3ccc(-c4ccc(C)c(N)c4)nc32)cc(OC)c1OC` .
11
